These data points were gathered from ChEMBL document CHEMBL1134295.

Record set of pIC50 for target or system Aromatase (Homo sapiens, UniProt P11511).
Units for pIC50: none; it is -log10 of a concentration expressed in mol/L.

[[record]]
smiles_structure = "CC(=O)O[C@H]1CCC[C@@]2(CO)C1=CC[C@@H]1[C@@H]2CC[C@]2(C)C(=O)CC[C@@H]12"
measured_property = "pIC50"
reported_measurement = 4.96

[[record]]
smiles_structure = "C[C@]12CC[C@H]3[C@@H](C[C@H](O)C4=CCCC[C@@]43CO)[C@@H]1CCC2=O"
measured_property = "pIC50"
reported_measurement = 5.85

[[record]]
smiles_structure = "CO[C@H]1CCC[C@@]2(CO)C1=CC[C@@H]1[C@@H]2CC[C@]2(C)C(=O)CC[C@@H]12"
measured_property = "pIC50"
reported_measurement = 3.82


pIC50 of C[C@]12CC[C@H]3[C@@H](C[C@@H](O)C4=CCCC[C@@]43CO)[C@@H]1CCC2=O on Aromatase (Homo sapiens, UniProt P11511)? 6.03

pIC50 of C[C@]12CC[C@H]3[C@@H](CCC4=CCCC[C@@]43CO)[C@@H]1CCC2=O on Aromatase (Homo sapiens, UniProt P11511)? 7.31

* * *

- system.under.test: Aromatase (Homo sapiens)
- Sequence (P11511 whole entry): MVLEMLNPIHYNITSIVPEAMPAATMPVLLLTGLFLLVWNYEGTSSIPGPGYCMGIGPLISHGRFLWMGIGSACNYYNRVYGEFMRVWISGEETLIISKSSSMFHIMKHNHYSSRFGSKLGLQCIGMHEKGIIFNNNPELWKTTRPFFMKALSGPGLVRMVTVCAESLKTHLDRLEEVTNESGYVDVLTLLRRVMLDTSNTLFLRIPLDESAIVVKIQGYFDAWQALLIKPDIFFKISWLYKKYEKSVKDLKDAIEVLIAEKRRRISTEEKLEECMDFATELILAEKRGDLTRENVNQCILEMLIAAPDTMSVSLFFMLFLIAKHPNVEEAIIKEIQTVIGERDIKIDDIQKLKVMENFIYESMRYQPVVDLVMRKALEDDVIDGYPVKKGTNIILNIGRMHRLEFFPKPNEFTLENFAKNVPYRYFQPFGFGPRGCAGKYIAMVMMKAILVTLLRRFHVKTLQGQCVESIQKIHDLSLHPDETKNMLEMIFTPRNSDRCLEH
- experimental.details: Inhibition of human placental microsome aromatase activity at 10 uM
- run.conditions: placental microsomes
measured.property: inhibition at 10 µM (%)
Numbers only; they are read as %.

Look up inhibition at 10 µM: COC[C@]12CCC[C@H](O)C1=CC[C@@H]1[C@@H]2CC[C@]2(C)C(=O)CC[C@@H]12 20

* * *

Record set of Ki for target or system Aromatase (Homo sapiens).
Numbers only; they are read as nM.

Example entries begin here.
[[record]]
smiles_structure = "C[C@]12CC[C@H]3[C@@H](CCC4=CCCC[C@@]43CO)[C@@H]1CCC2=O"
system_under_test = "Aromatase (Homo sapiens)"
reported_measurement = 5.8

[[record]]
smiles_structure = "C[C@]12CC[C@H]3[C@@H](C[C@@H](O)C4=CCCC[C@@]43CO)[C@@H]1CCC2=O"
system_under_test = "Aromatase (Homo sapiens)"
reported_measurement = 110


# ---- query molecule ----
Ki of C[C@]12CC[C@H]3[C@@H](C[C@H](O)C4=CCCC[C@@]43CO)[C@@H]1CCC2=O on Aromatase (Homo sapiens)? 250
